assay: Absorbance and fluorescence maximum wavelengths and quantum yields of the CyNA library; type: physicochemical; details: in DMSO, Cardiogreen as standard
observable: φ, quantum yield
Output: the number by itself.

Consider the following illustrative entries.
{"columns": ["molecule", "φ, quantum yield"],
 "data": [
  ["CCCN1/C(=C/C=C2\\CCCC(/C=C/C3=[N+](CCC)c4ccccc4C3(C)C)=C2N(Cc2cccc(C)c2)C(C)=O)C(C)(C)c2ccccc21 [CyNA-398]", 0.07],
  ["CCCCCCCCCCCCCN(C(C)=O)C1=C(/C=C/C2=[N+](CCC)c3ccccc3C2(C)C)CCC/C1=C\\C=C1\\N(CCC)c2ccccc2C1(C)C [CyNA-55]", 0.13],
  ["CCCN1/C(=C/C=C2\\CCCC(/C=C/C3=[N+](CCC)c4ccccc4C3(C)C)=C2N(Cc2ccc3c(c2)OCO3)C(C)=O)C(C)(C)c2ccccc21 [CyNA-49]", 0.10],
  ["CCCN1/C(=C/C=C2\\CCCC(/C=C/C3=[N+](CCC)c4ccccc4C3(C)C)=C2N(CCc2cccc(F)c2)C(C)=O)C(C)(C)c2ccccc21 [CyNA-405]", 0.06],
  ["CCCN1/C(=C/C=C2\\CCCC(/C=C/C3=[N+](CCC)c4ccccc4C3(C)C)=C2N(CCC(C)(C)C)C(C)=O)C(C)(C)c2ccccc21 [CyNA-92]", 0.09]
]}

For CCCN1/C(=C/C=C2\CCCC(/C=C/C3=[N+](CCC)c4ccccc4C3(C)C)=C2N(CCc2ccccc2F)C(C)=O)C(C)(C)c2ccccc21 [CyNA-477] the molecule record lists φ, quantum yield as 0.09

====

Experiment: Primary screening of photostability of the CyNA library (time-course fluorescence, 8 h)
Type: physicochemical
Conditions: 10 μM in HEPES 100 mM pH 7.4, 2% DMSO
Protocol: As a primary evaluation of photo stability, the decrease in fluorescence intensity of the 80 CyNA compounds was measured (see Table 2). The average decrease in fluorescence intensity after 8 hours of irradiation by a xenon lamp was approximately 18%. […] 10-μM CyNA solutions in 100 mM HEPES buffer (pH 7.4) containing 2% DMSO were placed in a 96-well black plate, and fluorescence intensity measurements were recorded every 10 minutes for a total period of 8 hours (excitation-emission: 790-820 nm). […]
observable: max RFU, maximum relative fluorescence units

Consider the following illustrative entries.
{"columns": ["compound", "result"],
 "data": [
  ["CCCCCCCCCCN(C(C)=O)C1=C(/C=C/C2=[N+](CCC)c3ccccc3C2(C)C)CCC/C1=C\\C=C1\\N(CCC)c2ccccc2C1(C)C", 22.5],
  ["CCCN1/C(=C/C=C2\\CCCC(/C=C/C3=[N+](CCC)c4ccccc4C3(C)C)=C2N(Cc2ccccc2Cl)C(C)=O)C(C)(C)c2ccccc21", 264.8],
  ["CCCN1/C(=C/C=C2\\CCCC(/C=C/C3=[N+](CCC)c4ccccc4C3(C)C)=C2N(CCN2CCOCC2)C(C)=O)C(C)(C)c2ccccc21", 820.1],
  ["CCCN1/C(=C/C=C2\\CCCC(/C=C/C3=[N+](CCC)c4ccccc4C3(C)C)=C2N(Cc2cccc(Br)c2)C(C)=O)C(C)(C)c2ccccc21", 259.2],
  ["CCCN1/C(=C/C=C2\\CCCC(/C=C/C3=[N+](CCC)c4ccccc4C3(C)C)=C2N(Cc2cccc(C)c2)C(C)=O)C(C)(C)c2ccccc21", 540.2]
]}

Attention now turns to another entry.
For CCCCC(CC)CN(C(C)=O)C1=C(/C=C/C2=[N+](CCC)c3ccccc3C2(C)C)CCC/C1=C\C=C1\N(CCC)c2ccccc2C1(C)C (stereo not drawn) the compound record lists max RFU, maximum relative fluorescence units as 77.7

====

assay: Absorbance and fluorescence maximum wavelengths and quantum yields of the CyNA library; format: physicochemical; conditions: in DMSO, Cardiogreen as standard
observable: φ, quantum yield
Output: the number by itself.

Consider the following illustrative entries.
{"columns": ["compound.structure", "φ, quantum yield"],
 "data": [
  ["CCCN1/C(=C/C=C2\\CCCC(/C=C/C3=[N+](CCC)c4ccccc4C3(C)C)=C2N(C(C)=O)C2CCCC2)C(C)(C)c2ccccc21", 0.14],
  ["CCCN1/C(=C/C=C2\\CCCC(/C=C/C3=[N+](CCC)c4ccccc4C3(C)C)=C2N(CCN2CCOCC2)C(C)=O)C(C)(C)c2ccccc21", 0.09]
]}

For CCCN1/C(=C/C=C2\CCCC(/C=C/C3=[N+](CCC)c4ccccc4C3(C)C)=C2N(Cc2ccccc2Cl)C(C)=O)C(C)(C)c2ccccc21 the molecule record lists φ, quantum yield as 0.05

For CCCN1/C(=C/C=C2\CCCC(/C=C/C3=[N+](CCC)c4ccccc4C3(C)C)=C2N(CCCCc2ccccc2)C(C)=O)C(C)(C)c2ccccc21 the molecule record lists φ, quantum yield as 0.13

For CCCN1/C(=C/C=C2\CCCC(/C=C/C3=[N+](CCC)c4ccccc4C3(C)C)=C2N(CCc2ccccc2-c2ccccc2)C(C)=O)C(C)(C)c2ccccc21 the molecule record lists φ, quantum yield as 0.07

For CCCN1/C(=C/C=C2\CCCC(/C=C/C3=[N+](CCC)c4ccccc4C3(C)C)=C2N(Cc2ccc(F)cc2F)C(C)=O)C(C)(C)c2ccccc21 the molecule record lists φ, quantum yield as 0.10

====

assay: Primary screening of photostability of the CyNA library (time-course fluorescence, 8 h); assay type: physicochemical; conditions: 10 μM in HEPES 100 mM pH 7.4, 2% DMSO
The entries below are paired with their reported max RFU, maximum relative fluorescence units.
Output: the number by itself.

{"columns": ["compound", "quantitative.readout"],
 "data": [
  ["CCCN1/C(=C/C=C2\\CCCC(/C=C/C3=[N+](CCC)c4ccccc4C3(C)C)=C2N(CCC(C)C)C(C)=O)C(C)(C)c2ccccc21 [CyNA-442]", 424.2],
  ["CCCN1/C(=C/C=C2\\CCCC(/C=C/C3=[N+](CCC)c4ccccc4C3(C)C)=C2N(CCCOCC)C(C)=O)C(C)(C)c2ccccc21 [CyNA-167]", 1031.8],
  ["CCCN1/C(=C/C=C2\\CCCC(/C=C/C3=[N+](CCC)c4ccccc4C3(C)C)=C2N(Cc2cc(OC)cc(OC)c2)C(C)=O)C(C)(C)c2ccccc21 [CyNA-262]", 816.5],
  ["CCCN1/C(=C/C=C2\\CCCC(/C=C/C3=[N+](CCC)c4ccccc4C3(C)C)=C2N(CC(c2ccccc2)c2ccccc2)C(C)=O)C(C)(C)c2ccccc21 [CyNA-548]", 67.6]
]}

For CCCN1/C(=C/C=C2\CCCC(/C=C/C3=[N+](CCC)c4ccccc4C3(C)C)=C2N(Cc2ccccc2OCC)C(C)=O)C(C)(C)c2ccccc21 [CyNA-103] the compound record lists max RFU, maximum relative fluorescence units as 1106.6

For CCCN1/C(=C/C=C2\CCCC(/C=C/C3=[N+](CCC)c4ccccc4C3(C)C)=C2N(C(C)=O)C2CCCC2)C(C)(C)c2ccccc21 [CyNA-180] the compound record lists max RFU, maximum relative fluorescence units as 991.3

For CCCN1/C(=C/C=C2\CCCC(/C=C/C3=[N+](CCC)c4ccccc4C3(C)C)=C2N(Cc2ccccc2F)C(C)=O)C(C)(C)c2ccccc21 [CyNA-375] the compound record lists max RFU, maximum relative fluorescence units as 533.7

====

assay: Absorbance and fluorescence maximum wavelengths and quantum yields of the CyNA library; assay type: physicochemical; conditions: CyNA library
observable: λem, fluorescence maximum wavelength (nm)
Response body: numeric value in nm, unit text excluded.

{"columns": ["molecule", "result.units", "λem, fluorescence maximum wavelength"],
 "data": [
  ["CCCN1/C(=C/C=C2\\CCCC(/C=C/C3=[N+](CCC)c4ccccc4C3(C)C)=C2N(CC(C)C)C(C)=O)C(C)(C)c2ccccc21", "nm", 823]
]}

For CCCN1/C(=C/C=C2\CCCC(/C=C/C3=[N+](CCC)c4ccccc4C3(C)C)=C2N(CCc2ccc(OC)c(OC)c2)C(C)=O)C(C)(C)c2ccccc21 the molecule record lists λem, fluorescence maximum wavelength as 823

For CCCCC(CC)CN(C(C)=O)C1=C(/C=C/C2=[N+](CCC)c3ccccc3C2(C)C)CCC/C1=C\C=C1\N(CCC)c2ccccc2C1(C)C (stereo not drawn) the molecule record lists λem, fluorescence maximum wavelength as 822

For CCCN1/C(=C/C=C2\CCCC(/C=C/C3=[N+](CCC)c4ccccc4C3(C)C)=C2N(CCCOC(C)C)C(C)=O)C(C)(C)c2ccccc21 the molecule record lists λem, fluorescence maximum wavelength as 820

For CCCN1/C(=C/C=C2\CCCC(/C=C/C3=[N+](CCC)c4ccccc4C3(C)C)=C2N(Cc2ccc(OC)cc2OC)C(C)=O)C(C)(C)c2ccccc21 [CyNA-181] the molecule record lists λem, fluorescence maximum wavelength as 821

For CCCN1/C(=C/C=C2\CCCC(/C=C/C3=[N+](CCC)c4ccccc4C3(C)C)=C2N(Cc2ccccc2Br)C(C)=O)C(C)(C)c2ccccc21 the molecule record lists λem, fluorescence maximum wavelength as 821

For CCCN1/C(=C/C=C2\CCCC(/C=C/C3=[N+](CCC)c4ccccc4C3(C)C)=C2N(CC2CCCCC2)C(C)=O)C(C)(C)c2ccccc21 the molecule record lists λem, fluorescence maximum wavelength as 820
